Numbers sourced from patent US4906661A.

# EXPERIMENTAL_DETAILS: Enzymatic hydrolysis by dog liver homogenate (procedure C)
# Assay type: in vitro ADME
# ASSAY_SETUP: dog, liver homogenate; approximate value, determined by procedure C; read-out: T1/2 dog liver homogenate
Listed here are molecules together with their documented half-life.

{"MOLECULE": "COC(=O)c1ccccc1OCC(O)CNCCNC(C)=O (stereo not drawn) [Example I]", "half-life": "< 1 h"}
{"MOLECULE": "COC(=O)c1ccccc1OCC(O)CNCCNC(=O)Cc1ccccc1 (stereo not drawn) [III]", "half-life": "< 1 h"}
{"MOLECULE": "COC(=O)c1ccccc1OCC(O)CNCCNC(=O)C(C)C (stereo not drawn) [II]", "half-life": "< 1 h"}

###

# TARGET: β1 receptors, guinea pig right atria (Cavia porcellus, UniProt H0W3H1)
# Sequence (H0W3H1 1-470): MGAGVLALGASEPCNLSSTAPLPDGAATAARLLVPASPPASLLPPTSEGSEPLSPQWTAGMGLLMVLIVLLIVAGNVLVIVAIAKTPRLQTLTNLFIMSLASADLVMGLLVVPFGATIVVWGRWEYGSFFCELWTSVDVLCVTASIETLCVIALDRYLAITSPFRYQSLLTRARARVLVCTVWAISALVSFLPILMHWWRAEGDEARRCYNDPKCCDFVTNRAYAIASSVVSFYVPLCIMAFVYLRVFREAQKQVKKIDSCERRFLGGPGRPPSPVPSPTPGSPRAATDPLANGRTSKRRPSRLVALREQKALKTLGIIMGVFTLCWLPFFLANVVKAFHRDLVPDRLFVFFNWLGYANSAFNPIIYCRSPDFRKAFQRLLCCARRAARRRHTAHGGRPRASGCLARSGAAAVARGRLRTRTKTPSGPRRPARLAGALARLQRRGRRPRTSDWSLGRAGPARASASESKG
# EXPERIMENTAL_DETAILS: cell-based
# ASSAY_SETUP: Table I; guinea pig right atria, vs isoproterenol; -log KB; read-out: PA2 Rt. Atria (converted)

{"COMPOUND": "COC(=O)c1ccccc1OCC(O)CNCCNC(=O)C(C)C (stereo not drawn)", "READING_UNIT": "nM", "VALUE_PREFIX": "=", "Kb": 7.94}
{"COMPOUND": "COC(=O)c1ccccc1OCC(O)CNCCNC(C)=O (stereo not drawn)", "READING_UNIT": "nM", "VALUE_PREFIX": "=", "Kb": 50.1}
{"COMPOUND": "COC(=O)c1ccccc1OCC(O)CNC(C)(C)CNC(=O)N1CCOCC1 (stereo not drawn)", "READING_UNIT": "nM", "VALUE_PREFIX": "<", "Kb": 1}
{"COMPOUND": "COC(=O)c1ccccc1OCC(O)CNCCNC(=O)Nc1ccccc1 (stereo not drawn)", "READING_UNIT": "nM", "VALUE_PREFIX": "=", "Kb": 7.94}
{"COMPOUND": "COC(=O)c1ccccc1OCC(O)CNCCNC(=O)Cc1ccccc1 (stereo not drawn)", "READING_UNIT": "nM", "VALUE_PREFIX": "=", "Kb": 5.01}
{"COMPOUND": "COC(=O)c1ccccc1OCC(O)CNCCNS(=O)(=O)c1ccc(C)cc1.O=C(O)C(=O)O (stereo not drawn) [Example VII, Oxalate]", "READING_UNIT": "nM", "VALUE_PREFIX": "=", "Kb": 158}

###

Listed here are compounds together with their documented half-life.
# EXPERIMENTAL_DETAILS: Half-life in dog liver homogenate (procedure D)
# Type: in vitro ADME
# ASSAY_SETUP: 37° C., read-out: T1/2 dog liver homogenate

{"COMPOUND": "COC(=O)c1ccccc1OCC(O)CNCCNC(=O)Nc1ccccc1 (stereo not shown)", "READING_UNIT": "min", "VALUE_PREFIX": ">", "half-life": 180}
{"COMPOUND": "COC(=O)c1ccccc1OCC(O)CNCCNC(C)=O (stereo not shown)", "READING_UNIT": "min", "VALUE_PREFIX": "=", "half-life": 167}
{"COMPOUND": "COC(=O)c1ccccc1OCC(O)CNCCNC(=O)Cc1ccccc1 (stereo not shown)", "READING_UNIT": "min", "VALUE_PREFIX": "=", "half-life": 129}
{"COMPOUND": "COC(=O)c1ccccc1OCC(O)CNCCNC(=O)C(C)C (stereo not shown)", "READING_UNIT": "min", "VALUE_PREFIX": ">", "half-life": 180}

###

Listed here are molecules together with their documented Recovery Time 80%.
# System: heart rate response to isoproterenol
# EXPERIMENTAL_DETAILS: Duration and potency of beta-blocking action in vivo, 3-hour infusion in anesthetized dogs, isoproterenol challenge
# Design: species or system dog
# ASSAY_SETUP: Table II; 80% recovery from β-blockade after termination of infusion

{"MOLECULE": "COC(=O)c1ccccc1OCC(O)CNCCNC(=O)Nc1ccccc1 (stereo not drawn)", "Recovery Time 80%": "> 60 min"}
{"MOLECULE": "COC(=O)c1ccccc1OCC(O)CNCCNC(C)=O (stereo not drawn)", "Recovery Time 80%": "18 ± 1 min"}
{"MOLECULE": "COC(=O)c1ccccc1OCC(O)CNC(C)(C)CNS(=O)(=O)c1ccccc1 (stereo not drawn)", "Recovery Time 80%": "> 60 min"}
{"MOLECULE": "COC(=O)c1ccccc1OCC(O)CNC(C)(C)CNC(=O)N1CCOCC1 (stereo not drawn)", "Recovery Time 80%": "> 60 min"}
{"MOLECULE": "CC(C)NCC(O)COc1cccc2ccccc12 (stereo not drawn) [Propranolol, reference compound]", "Recovery Time 80%": "> 60 min"}
{"MOLECULE": "COC(=O)c1ccccc1OCC(O)CNCCNC(=O)C(C)C (stereo not drawn)", "Recovery Time 80%": "17 ± 1 min"}

###

# EXPERIMENTAL_DETAILS: Enzymatic hydrolysis by dog aqueous humor (procedure C)
# Format: in vitro ADME
# ASSAY_SETUP: 37° C., 2 hr, procedure C, read-out: % Drug remaining, 2 HR, dog aqueous humor

{"COMPOUND": "COC(=O)c1ccccc1OCC(O)CNCCNC(=O)C(C)C (stereo not drawn) [II]", "remaining at 2 h, %": 91}
{"COMPOUND": "COC(=O)c1ccccc1OCC(O)CNCCNC(C)=O (stereo not drawn) [Example I]", "remaining at 2 h, %": 93}
{"COMPOUND": "COC(=O)c1ccccc1OCC(O)CNCCNC(=O)Cc1ccccc1 (stereo not drawn) [III]", "remaining at 2 h, %": 98}

###

# TARGET: UniProtKB Q8K4Z4
# Sequence (Q8K4Z4 whole entry): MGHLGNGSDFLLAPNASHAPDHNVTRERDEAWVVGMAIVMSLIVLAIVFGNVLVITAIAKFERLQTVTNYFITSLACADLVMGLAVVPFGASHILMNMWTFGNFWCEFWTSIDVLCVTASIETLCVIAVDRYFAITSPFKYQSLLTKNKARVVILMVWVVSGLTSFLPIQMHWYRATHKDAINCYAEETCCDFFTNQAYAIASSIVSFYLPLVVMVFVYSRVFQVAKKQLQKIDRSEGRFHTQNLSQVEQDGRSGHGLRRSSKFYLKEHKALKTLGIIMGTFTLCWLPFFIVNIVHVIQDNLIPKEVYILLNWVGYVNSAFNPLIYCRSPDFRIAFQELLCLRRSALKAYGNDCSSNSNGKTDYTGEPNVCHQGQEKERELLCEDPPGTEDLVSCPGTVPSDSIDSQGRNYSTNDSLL
# EXPERIMENTAL_DETAILS: cell-based
# ASSAY_SETUP: Table I; guinea pig trachea, vs isoproterenol; -log KB; read-out: PA2 Trachea (converted)
# Protocol: Each tissue was suspended between a fixed glass rod and a Statham Universal Transducer connected to a Beckman recorder. Atria were allowed to beat spontaneously under a loading tension of approximately 0.5 gm. Intrinsic depressant or stimulant activity was determined for each compound by progressively increasing concentrations in the tissue baths at 60-minute intervals. Tissues were not washed between increments. […]
Label Yes when Kb is at or above 30 nM; anything below gets No.

{"COMPOUND": "COC(=O)c1ccccc1OCC(O)CNC(C)(C)CNS(=O)(=O)c1ccccc1 (stereo not drawn) [VIII]", "LABEL": "No"}
{"COMPOUND": "COC(=O)c1ccccc1OCC(O)CNCCNS(=O)(=O)c1ccc(C)cc1.O=C(O)C(=O)O (stereo not drawn) [Example VII, Oxalate]", "LABEL": "Yes"}
{"COMPOUND": "COC(=O)c1ccccc1OCC(O)CNCCNC(=O)Nc1ccccc1 (stereo not drawn) [Example IV]", "LABEL": "Yes"}
{"COMPOUND": "COC(=O)c1ccccc1OCC(O)CNCCNC(=O)Cc1ccccc1 (stereo not drawn) [III]", "LABEL": "No"}
{"COMPOUND": "COC(=O)c1ccccc1OCC(O)CNCCNC(C)=O (stereo not drawn) [Example I]", "LABEL": "Yes"}
{"COMPOUND": "COC(=O)c1ccccc1OCC(O)CNCCNC(=O)C(C)C (stereo not drawn) [II]", "LABEL": "Yes"}

###

Listed here are compounds together with their documented remaining at 1 h.
# EXPERIMENTAL_DETAILS: Enzymatic hydrolysis by dog liver homogenate (procedure C)
# Format: in vitro ADME
# ASSAY_SETUP: dog, liver homogenate; 37° C., 1 hr, procedure C; read-out: % Drug remaining, 1 HR, dog liver homogenate

{"COMPOUND": "COC(=O)c1ccccc1OCC(O)CNCCNC(C)=O (stereo not drawn) [Example I]", "remaining at 1 h / %": 0}
{"COMPOUND": "COC(=O)c1ccccc1OCC(O)CNCCNC(=O)C(C)C (stereo not drawn) [II]", "remaining at 1 h / %": 0}
{"COMPOUND": "COC(=O)c1ccccc1OCC(O)CNCCNC(=O)Cc1ccccc1 (stereo not drawn) [III]", "remaining at 1 h / %": 0}

###

# EXPERIMENTAL_DETAILS: Enzymatic hydrolysis by dog aqueous humor (procedure C)
# Assay type: in vitro ADME
# ASSAY_SETUP: 37° C., 1 hr, procedure C, read-out: % Drug remaining, 1 HR, dog aqueous humor

{"COMPOUND": "COC(=O)c1ccccc1OCC(O)CNCCNC(=O)C(C)C (stereo not drawn) [II]", "READING_UNIT": "%", "remaining at 1 h": 94}
{"COMPOUND": "COC(=O)c1ccccc1OCC(O)CNCCNC(C)=O (stereo not drawn) [Example I]", "READING_UNIT": "%", "remaining at 1 h": 93}
{"COMPOUND": "COC(=O)c1ccccc1OCC(O)CNCCNC(=O)Cc1ccccc1 (stereo not drawn) [III]", "READING_UNIT": "%", "remaining at 1 h": 100}
